# study.system: AMPK complex 1 (containing alpha1beta1gamma1) (Homo sapiens, UniProt Q13131+Q9Y478)
# Construct: GST (Glutathion S transferase) (N); virus made in Sf9, expression in High Five cells
# Sequence (Q13131 whole entry): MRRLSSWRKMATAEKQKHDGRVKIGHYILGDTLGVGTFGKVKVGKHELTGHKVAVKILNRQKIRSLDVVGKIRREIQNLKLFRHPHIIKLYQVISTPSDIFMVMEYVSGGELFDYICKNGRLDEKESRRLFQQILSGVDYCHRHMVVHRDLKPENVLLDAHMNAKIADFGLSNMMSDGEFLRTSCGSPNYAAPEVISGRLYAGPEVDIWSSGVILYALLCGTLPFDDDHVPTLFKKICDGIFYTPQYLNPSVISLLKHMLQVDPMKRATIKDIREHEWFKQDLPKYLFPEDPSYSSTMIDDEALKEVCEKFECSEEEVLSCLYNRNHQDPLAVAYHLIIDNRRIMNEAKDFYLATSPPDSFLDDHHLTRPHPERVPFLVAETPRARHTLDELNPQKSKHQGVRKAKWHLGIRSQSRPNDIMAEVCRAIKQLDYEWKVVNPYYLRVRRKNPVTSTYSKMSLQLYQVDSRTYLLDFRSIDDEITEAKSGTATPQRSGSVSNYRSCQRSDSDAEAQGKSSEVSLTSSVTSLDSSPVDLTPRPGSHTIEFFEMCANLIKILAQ
# Sequence (Q9Y478 whole entry): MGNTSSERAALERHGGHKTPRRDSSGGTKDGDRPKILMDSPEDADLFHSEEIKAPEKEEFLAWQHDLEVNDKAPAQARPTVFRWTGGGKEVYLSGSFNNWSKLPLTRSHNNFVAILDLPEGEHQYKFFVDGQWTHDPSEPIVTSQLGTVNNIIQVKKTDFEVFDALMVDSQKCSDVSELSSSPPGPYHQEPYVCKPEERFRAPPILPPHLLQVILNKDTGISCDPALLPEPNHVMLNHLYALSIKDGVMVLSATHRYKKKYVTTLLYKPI
# Sequence (P54619 whole entry partner): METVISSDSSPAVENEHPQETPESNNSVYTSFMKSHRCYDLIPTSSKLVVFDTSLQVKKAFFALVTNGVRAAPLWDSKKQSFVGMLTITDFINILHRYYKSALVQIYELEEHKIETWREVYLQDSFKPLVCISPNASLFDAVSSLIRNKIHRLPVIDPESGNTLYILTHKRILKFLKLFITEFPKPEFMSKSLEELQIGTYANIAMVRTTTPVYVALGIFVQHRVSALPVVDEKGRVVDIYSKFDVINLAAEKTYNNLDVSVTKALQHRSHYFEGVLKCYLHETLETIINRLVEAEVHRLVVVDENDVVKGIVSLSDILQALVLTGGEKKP
# assay.details: In vitro AMPK activation assay (ADP-Glo Kinase Assay)
# assay.setup: 30 μM ATP, 1 μM peptide, 60 min, room temperature
Listed next: entries and their corresponding EC50.
measurement.type: EC50 (µM)

In [3]: df
Out[3]:
                                    compound  measurement_type  result_value
 0  O=S1(=Nc2ccc(-c3ccc(-c4nc5[nH]c(O[C@@H]6CO[C@H]7[C@@H]6OC[C@H]7O)nc5cc4Cl)cc3)cc2)CCCC1              EC50         0.004
 1  CS(C)(=O)=Nc1cc(-c2ccc(-c3nc4[nH]c(O[C@@H]5CO[C@H]6[C@@H]5OC[C@H]6O)nc4cc3Cl)cc2)ccn1              EC50         0.015
 2  CS(=O)(=NC(=O)c1ccc(-c2nc3[nH]c(O[C@@H]4CO[C@H]5[C@@H]4OC[C@H]5O)nc3cc2Cl)cc1)C1CCOCC1 (stereo partly drawn)              EC50         0.776
 3  CS(C)(=O)=Nc1ccc(-c2nc3[nH]c(O[C@@H]4CO[C@H]5[C@@H]4OC[C@H]5O)nc3cc2Cl)cc1              EC50         0.275
 4  C[S@@](=O)(=Nc1ccc(-c2nc3[nH]c(O[C@@H]4CO[C@H]5[C@@H]4OC[C@H]5O)nc3cc2Cl)cc1)c1ccccc1              EC50         0.014
 5  CS(C)(=O)=NCc1cc(-c2ccc(-c3nc4[nH]c(O[C@@H]5CO[C@H]6[C@@H]5OC[C@H]6O)nc4cc3Cl)cc2)ccn1              EC50         0.056
 6  CS(=N)(=O)c1ccc(-c2ccc(-c3nc4[nH]c(O[C@@H]5CO[C@H]6[C@@H]5OC[C@H]6O)nc4cc3Cl)cc2)nc1 (stereo partly drawn)              EC50         0.004
 7  CS(=N)(=O)Cc1ccc(-c2ccc(-c3nc4[nH]c(O[C@@H]5CO[C@H]6[C@@H]5OC[C@H]6O)nc4cc3Cl)cc2)cc1 (stereo partly drawn)              EC50         0.003
 8  CS(C)(=N)=Nc1ccc(-c2nc3[nH]c(O[C@@H]4CO[C@H]5[C@@H]4OC[C@H]5O)nc3cc2Cl)cc1              EC50         0.041
 9  CS(C)(=O)=Nc1cnc(-c2ccc(-c3nc4[nH]c(O[C@@H]5CO[C@H]6[C@@H]5OC[C@H]6O)nc4cc3Cl)cc2)nc1              EC50         0.003
10  CN=S1(=O)CC2CN(c3ccc(-c4nc5[nH]c(O[C@@H]6CO[C@H]7[C@@H]6OC[C@H]7O)nc5cc4Cl)cc3)CC2C1 (stereo partly drawn)              EC50         0.118
11  CS(=O)(=NC(=O)c1ccc(-c2nc3[nH]c(O[C@@H]4CO[C@H]5[C@@H]4OC[C@H]5O)nc3cc2Cl)cc1)c1cccnc1 (stereo partly drawn)              EC50         0.055
